- Target Desc: EGFR (Homo sapiens)
- Sequence (P00533 712-979 limits assumed): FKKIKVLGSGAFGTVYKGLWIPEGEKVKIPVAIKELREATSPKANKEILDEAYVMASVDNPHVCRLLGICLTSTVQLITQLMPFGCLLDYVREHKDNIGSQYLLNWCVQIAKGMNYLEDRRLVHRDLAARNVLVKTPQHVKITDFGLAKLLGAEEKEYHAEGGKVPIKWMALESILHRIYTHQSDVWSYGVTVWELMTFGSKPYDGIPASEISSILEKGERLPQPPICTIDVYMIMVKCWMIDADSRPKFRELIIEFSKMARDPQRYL
- Assay: In vitro inhibition of EGFR, Flash Plate or glass-fiber filter technology (C2)
- Type: biochemical
- Design: 0.5 μg EGFR-kinase domain/well
- Study Conditions: EGFR-kinase domain, 5.0 μM unlabeled ATP, read-out: Kinase activity.(C2): pIC50 (converted)
Endpoint: log10(IC50) (log10 of the value in nM)

Compound	Quantitative Result
COc1cc2ncnc3c2cc1OCCNC(=O)CNCc1cc(F)c(Cl)cc1N3	2.40
COc1cc2ncnc3c2cc1OCCCC(=O)NC(C(C)O)C(=O)NCc1ccc(Cl)cc1N3 (centres unmarked)	2.30
COc1cc2ncnc3c2cc1OCCNC(=O)CCNCc1ccc(Cl)cc1N3	1.80
COc1cc2ncnc3c2cc1OCC(=O)NCC(=O)NCCc1ccc(Cl)cc1N3	1.80
COc1cc2ncnc3c2cc1OCCNC(=O)CNCc1ccc(Cl)cc1N3	1.60
COc1cc2ncnc3c2cc1OCC(=O)NCCCC(=O)NCc1ccccc1N3	3.70
COc1cc2ncnc3c2cc1OCC1CCCN1CC(=O)NCCCc1ccc(Cl)cc1N3 (centres unmarked)	2.10
COc1cc2ncnc3c2cc1OCCCCC(=O)N1CCCC1C(=O)NCc1ccc(Cl)cc1N3 (centres unmarked)	2.60
